Listed below: binding signal values for each entry.
Target: TDP-43 (Homo sapiens, UniProt Q13148 1-414)
Sequence (Q13148 whole entry): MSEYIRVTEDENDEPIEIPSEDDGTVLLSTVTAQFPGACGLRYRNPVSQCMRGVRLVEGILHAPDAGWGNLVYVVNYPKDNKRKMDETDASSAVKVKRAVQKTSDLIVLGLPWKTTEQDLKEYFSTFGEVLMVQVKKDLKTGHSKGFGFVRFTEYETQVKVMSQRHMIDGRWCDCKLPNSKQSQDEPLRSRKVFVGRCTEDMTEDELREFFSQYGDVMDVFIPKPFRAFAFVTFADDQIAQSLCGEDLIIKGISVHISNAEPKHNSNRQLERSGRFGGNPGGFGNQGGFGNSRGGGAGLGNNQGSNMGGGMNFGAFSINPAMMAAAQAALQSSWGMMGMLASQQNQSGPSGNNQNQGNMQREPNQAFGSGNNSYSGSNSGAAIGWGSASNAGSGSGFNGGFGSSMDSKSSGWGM
Experiment: RNA Bind-n-Seq with designed 260-mer pool; 25 mM Tris-HCl, 150 mM KCl, 3 mM MgCl2, BSA (printed 500 mg/mL), 20 units/mL SUPERase IN; pH not stated; 500 nM RNA pool, 1 h, 4 C; TDP-43 5, 50, 500 nM; high values mean tight binding
Settings: protein: recombinant; tags: SBP (GST cleaved off with PreScission; pGEX-GST-SBP)
The full ranking holds about 9,900 sequences; the median of “r (bound/input frequency ratio)” is about 0.7, and the highest 2% start at about 6.5. Many of the other results were omitted from the sample, so the highest values are more common in it than they were.
Value Kind: binding signal

>>> test_value("ENSMUSG00000042529.423|Kcnj12|7:11;23:33;56:61;218:222 (ssRNA) RNA: GGGAGUUCUACAGUCCGACGAUCGCUUCGAUAUCCGCAUGCUAGUGAGGCACACGAGGUCCCAGGCACACACAUACUGAAUGUCAGUGGCUUGGGUGCACACACGAGAGAGAGAGAGAGAGAGAGAGAGAGAGAGAGAGAGAGAGAGAGAGAGAGCUGCACAGGAUGAAGCAGCUGCCCUGAGCCCAUCUGGUGCUGUGCACCUGGUCCUUGUCCAGCCGAGGGCCUGGGGGCAGAAGAACACACCAUAGGGAGGCCCUUCAUACGGUGUCUGCCCUAUGUGAGGUCAUAGAAUGUUAAAUCUCUCUUGCGGUCGCACUAGUGUGGAAUUCUCGGGUGUCAAGG")
"7.58 R (bound/input frequency ratio)"
>>> test_value("ENSMUSG00000042529.424|Kcnj12|1:5;17:27;50:55;212:216 (ssRNA) RNA: GGGAGUUCUACAGUCCGACGAUCGCUUCGAUAUCCGCAUGCUACACACGAGGUCCCAGGCACACACAUACUGAAUGUCAGUGGCUUGGGUGCACACACGAGAGAGAGAGAGAGAGAGAGAGAGAGAGAGAGAGAGAGAGAGAGAGAGAGCUGCACAGGAUGAAGCAGCUGCCCUGAGCCCAUCUGGUGCUGUGCACCUGGUCCUUGUCCAGCCGAGGGCCUGGGGGCAGAAGAACACACCAUAGGGAGGCCCUUCAUACGGUGUCUGCCCUAUGUGAGGUCAUAGAAUGUUAAAUCUAUUUUACUCUUGCGGUCGCACUAGUGUGGAAUUCUCGGGUGUCAAGG")
"6.55 R (bound/input frequency ratio)"
